# Test name: Prodrug activation assessed as mushroom tyrosinase-mediated compound hydrolysis by measuring half life in presence of 100 U/ml of tyrosinase by HPLC analysis
# Condition parameters: agaricus bisporus
Recorded t1/2, one value per entry.
Your answer should be a plain number; it is taken to be in min.

Example results:
Compound smiles | Unit name | t1/2
CN(/N=N/c1ccc(C(N)=O)cc1)C(=O)CCCCc1ccc(O)cc1 | min | 5.8
COC(=O)c1ccc(/N=N/N(C)C(=O)CCCCc2ccc(O)cc2)cc1 | min | 3.6
CCOC(=O)c1ccc(/N=N/N(C)C(=O)CCCCc2ccc(O)cc2)cc1 | min | 4.8
COC(=O)c1ccc(/N=N/N(C)C(=O)CCc2ccc(OC(=O)CCc3ccc(O)cc3)cc2)cc1 | min | 6.4

Problem: Requested field: t1/2. Item: CN(/N=N/c1ccc(Br)cc1)C(=O)CCCCc1ccc(O)cc1
Result: 6.46

---

Reported t1/2 values for a set of compounds
# Test name: Prodrug activation assessed as mushroom tyrosinase-mediated compound hydrolysis by measuring half life in presence of 100 U/ml of tyrosinase by HPLC analysis
# Condition parameters: agaricus bisporus

Compound smiles | Recorded measurement
COC(=O)c1ccc(/N=N/N(C)C(=O)CCc2ccc(O)cc2)cc1 | 2.46 to 2.5 min
CN(/N=N/c1ccc(C(N)=O)cc1)C(=O)CCc1ccc(O)cc1 | 4.6 to 4.62 min

From here, focus on the item given below.
Problem: So what does the record say about t1/2 for CN(/N=N/c1ccc(C#N)cc1)C(=O)Cc1ccc(O)cc1 ?
Result: 28 to 28.1 min

src = ChEMBL document CHEMBL4052670
